Target: Albumin (Homo sapiens, UniProt P02768)
Sequence (P02768 whole entry): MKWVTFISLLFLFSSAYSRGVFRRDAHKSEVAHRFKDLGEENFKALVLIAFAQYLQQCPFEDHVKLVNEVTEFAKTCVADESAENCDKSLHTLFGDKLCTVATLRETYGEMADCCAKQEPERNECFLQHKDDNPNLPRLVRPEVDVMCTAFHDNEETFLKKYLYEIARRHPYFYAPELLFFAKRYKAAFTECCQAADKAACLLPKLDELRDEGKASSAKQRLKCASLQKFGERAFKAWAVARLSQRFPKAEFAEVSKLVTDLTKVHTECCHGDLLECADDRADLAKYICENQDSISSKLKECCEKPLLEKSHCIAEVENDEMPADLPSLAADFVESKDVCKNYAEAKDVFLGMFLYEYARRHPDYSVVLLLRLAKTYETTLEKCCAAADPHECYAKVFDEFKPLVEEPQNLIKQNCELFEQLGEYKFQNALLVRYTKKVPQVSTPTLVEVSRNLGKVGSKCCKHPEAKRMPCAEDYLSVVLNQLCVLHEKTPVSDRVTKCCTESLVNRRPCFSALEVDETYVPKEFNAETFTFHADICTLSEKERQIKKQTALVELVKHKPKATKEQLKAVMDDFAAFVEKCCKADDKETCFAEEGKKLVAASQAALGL
Experiment: Protein Binding Assay measures the ability of a compound to bind to human albumin in pH 7.4 buffer.
# cutoff 90% applies to Binding; >= gives rule met, < gives rule not met

Example cases with answers are listed next.
- COMPOUND: "Cc1ccc(S(=O)(=O)N[C@@H](CNC(=O)c2cc3cc(OCC4CCNCC4)ccc3[nH]2)C(=O)O)cc1"
  ASSIGNED_CATEGORY: "rule not met"
- COMPOUND: "Nc1cc(COc2ccc3[nH]c(C(=O)NC[C@H](NS(=O)(=O)c4ccccc4)C(=O)O)cc3c2)ccn1"
  ASSIGNED_CATEGORY: "rule met"

Please find the next compound below.
(Q) Reported Binding reaches at least 90% for O=C(NC[C@H](NS(=O)(=O)c1ccccc1)C(=O)O)c1cc2cc(OCCCc3c[nH]cn3)ccc2[nH]1 ?
(A) rule met

Measured values drawn from ChEMBL document CHEMBL1151560 for this set.
